These entries and their values trace back to patent US20230049752A1.

# measurementTarget: human Claudin-6 (CLDN6) (human) (UniProt P56747)
# assayExplanation: FACS, 1.5 ug Ab, ARK2 cells (2nd Ab only 1351.21)
measuredEndpoint: FACS fluorescence
The answer should be written as a number, with no unit following it.

Report FACS fluorescence for AB4-chim (antibody, V domains shown) VH: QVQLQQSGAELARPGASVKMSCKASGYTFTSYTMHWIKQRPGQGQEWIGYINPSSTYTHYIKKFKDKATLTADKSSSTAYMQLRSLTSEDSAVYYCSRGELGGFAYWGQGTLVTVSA VL: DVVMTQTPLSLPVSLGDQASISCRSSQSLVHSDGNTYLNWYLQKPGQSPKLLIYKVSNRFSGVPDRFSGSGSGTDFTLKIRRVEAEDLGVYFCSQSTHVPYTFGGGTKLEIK 38400

Consider the binder AB18-4 (antibody, V domains shown) VH: QVQLVQSGAEVKKPGASVKVSCKASGYSFTGYNMNWVRQAPGQGLEWMGNIDPYYGGSTYAQKFQGRVTMTVDTSTSTVYMELSSLRSEDTAVYYCARERSGYVFSAMDYWGQGTLVTVSS VL: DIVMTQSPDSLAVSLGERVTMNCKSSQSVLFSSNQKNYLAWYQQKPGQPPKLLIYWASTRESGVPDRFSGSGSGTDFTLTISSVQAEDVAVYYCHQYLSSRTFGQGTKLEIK and give its recorded FACS fluorescence. 1380

Answer with the recorded FACS fluorescence of AB11-2 (antibody, V domains shown, humanized) VH: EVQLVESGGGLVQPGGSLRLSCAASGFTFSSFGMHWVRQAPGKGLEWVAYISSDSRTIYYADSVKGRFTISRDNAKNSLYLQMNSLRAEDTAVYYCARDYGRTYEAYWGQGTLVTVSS VL: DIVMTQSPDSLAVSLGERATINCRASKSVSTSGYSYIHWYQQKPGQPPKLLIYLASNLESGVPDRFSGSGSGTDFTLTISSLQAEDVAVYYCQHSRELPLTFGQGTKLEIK only. 1940
